Measured self-aminoacylation by item
tested on: biotinyl-Val-oxazolone; assay: self-aminoacylation, catalytic enhancement (BVO) (fold over background); higher = more active; k-Seq, kA / k0A0; sequences stand for … in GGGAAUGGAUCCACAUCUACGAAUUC…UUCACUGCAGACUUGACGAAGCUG
Fewer inactive variants are shown than the library holds.
The answer should be a number; do not append a unit.

Challenge: Return reported self-aminoacylation; argument: AUUACUCUGGUCAUCGAGUGU [Fam2.1 aminoacylation ribozyme variant]
Response given: 2.57

Challenge: Return reported self-aminoacylation; argument: CUACUUCAAACAAUCGGUCAU [Fam1A.1 aminoacylation ribozyme variant]
Response given: 1.01

Challenge: Return reported self-aminoacylation; argument: CCACACUUCUAUCAAUCGGUC [Fam1B.1 aminoacylation ribozyme variant]
Response given: 0.743

###

test system: biotinyl-Val-oxazolone; assay: self-aminoacylation, catalytic enhancement (BVO) (fold over background); higher = more active; k-Seq, kA / k0A0; sequences stand for … in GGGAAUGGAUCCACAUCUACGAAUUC…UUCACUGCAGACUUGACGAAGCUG
Variants at the floor of the assay were thinned out.
Measurement Label: self-aminoacylation
The answer should be a number; do not append a unit.

Look over these answered cases.
Challenge: Return reported self-aminoacylation; argument: AUUCACCUAGGACAUCGGGUC [Fam2.2 aminoacylation ribozyme variant]
Response given: 1.25

Challenge: Return reported self-aminoacylation; argument: CCACAGUUCAAGCCAUCGGUC [Fam1B.1 aminoacylation ribozyme variant]
Response given: 2.17

Challenge: Return reported self-aminoacylation; argument: CCACAAUUCAAGCAGUCGGUC [Fam1B.1 aminoacylation ribozyme variant]
Response given: 1.22

Challenge: Return reported self-aminoacylation; argument: CUACUUCAAGCGAUCGGUCUG [Fam1A.1 aminoacylation ribozyme variant]
Response given: 0.781

Challenge: Return reported self-aminoacylation; argument: UUACUUCAAACAAUCGGUCCG [Fam1A.1 aminoacylation ribozyme variant]
Response given: 0.891

Challenge: Return reported self-aminoacylation; argument: CUAUUUCAAACAAUCGGUCUG [Fam1A.1 aminoacylation ribozyme variant]
Response given: 0.781

Challenge: Return reported self-aminoacylation; argument: AUUACCAUGGUCAUCGCGUGA [Fam2.1 aminoacylation ribozyme variant]
Response given: 12.1

Now for a further sequence.
Challenge: Return reported self-aminoacylation; argument: CCUCACUUCAAGCAAUCGGUA [Fam1B.1 aminoacylation ribozyme variant]
Response given: 1.11

###

test system: biotinyl-Met-oxazolone; assay: self-aminoacylation, catalytic enhancement (BMO) (fold over background); higher = more active; k-Seq, kA / k0A0; sequences stand for … in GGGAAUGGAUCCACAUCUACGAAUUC…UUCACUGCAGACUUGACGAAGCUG
Variants at the floor of the assay were thinned out.
Measurement Label: self-aminoacylation
The answer should be a number; do not append a unit.

Look over these answered cases.
Challenge: Return reported self-aminoacylation; argument: CCGCACUUCGAGCAAUCGGUC [Fam1B.1 aminoacylation ribozyme variant]
Response given: 1.46

Challenge: Return reported self-aminoacylation; argument: CUACUUCAGGCAAUCGGUCUG [Fam1A.1 aminoacylation ribozyme variant]
Response given: 0.853

Challenge: Return reported self-aminoacylation; argument: AUGACCCUGGUCAUCGAGUAA [Fam2.1 aminoacylation ribozyme variant]
Response given: 10.1

Now for a further sequence.
Challenge: Return reported self-aminoacylation; argument: AUUACCCUGGUCAUCGAUUGU [Fam2.1 aminoacylation ribozyme variant]
Response given: 0.73
